// agonist EC50 (cAMP AlphaScreen, HEK293 cells stably expressing the receptor) lookup, one value per entry
EXPERIMENTAL SYSTEM: mouse melanocortin-4 receptor (mouse) (UniProt P56450)
Sequence (P56450 whole entry): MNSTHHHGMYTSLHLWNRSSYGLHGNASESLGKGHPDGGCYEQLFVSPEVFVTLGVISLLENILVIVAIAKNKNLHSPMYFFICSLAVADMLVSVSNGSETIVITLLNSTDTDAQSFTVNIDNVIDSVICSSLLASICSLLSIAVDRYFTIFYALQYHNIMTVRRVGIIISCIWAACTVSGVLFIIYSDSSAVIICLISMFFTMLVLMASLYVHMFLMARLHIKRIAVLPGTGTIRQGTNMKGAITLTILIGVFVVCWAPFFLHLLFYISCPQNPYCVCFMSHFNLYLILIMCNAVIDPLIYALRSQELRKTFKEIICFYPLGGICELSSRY
Non-standard residues stand in square brackets, D forms with d.

These recorded examples may help you get a feel for the data.
BINDER | TEST RESULT
cyclo(PRFFEAF[dP]) [c[Pro-Arg-Phe-Phe-Glu-Ala-Phe-DPro]] | > 100 µM
cyclo(PRFFDAF[dP]) [c[Pro-Arg-Phe-Phe-Asp-Ala-Phe-DPro]] | > 100 µM

Now consider the entry below.
Input: State, in one line, measured agonist EC50 (cAMP AlphaScreen, HEK293 cells stably expressing the receptor) of cyclo(PRFFNAA[dP]) (SMILES C[C@@H]1NC(=O)[C@H](CC(N)=O)NC(=O)[C@H](Cc2ccccc2)NC(=O)[C@H](Cc2ccccc2)NC(=O)[C@H](CCCNC(=N)N)NC(=O)[C@@H]2CCCN2C(=O)[C@H]2CCCN2C(=O)[C@H](C)NC1=O) [c[Pro-Arg-Phe-Phe-Asn-Ala-Ala-DPro]]
Output: > 100 µM
